Protocol text: Cytotoxicity against human 9KB cells relative to control
Format: functional
Test conditions: read-out: ED50 (the source's name)
Give EC50 for every item shown.

Ask | Consider the compound CC(=O)O[C@@H]1[C@H]2CC[C@H]3[C@@](C)(O)[C@@H]4C[C@H](O)C(C)(C)[C@@]4(O)[C@H](O)C[C@@]13C[C@@]2(C)O and give its measured EC50.
Reply | 60 µg/mL

Ask | Consider the compound COc1cc(O)c(C(C)=O)c(O)c1 and give its measured EC50.
Reply | 4.7 µg/mL

Ask | Consider the compound O=C(CCc1ccc(O)cc1)c1c(O)cc(O)cc1O and give its measured EC50.
Reply | 28 µg/mL

Ask | Consider the compound O=C(CCc1ccc(O)c(O)c1)c1ccc(O)c(O)c1O and give its measured EC50.
Reply | 2.5 µg/mL

Ask | Consider the compound O=C(CCc1ccc(O)cc1)c1c(O)cc(O)cc1O[C@@H]1O[C@H](CO)[C@@H](O)[C@H](O)[C@H]1O and give its measured EC50.
Reply | 100 µg/mL

Reference source for all entries: ChEMBL document CHEMBL1158654
